# credit: ChEMBL document CHEMBL5380795

log10 of MIC values for the compounds below.
# System: Staphylococcus epidermidis
# RUN_DESCRIPTION: Antibacterial activity against methicillin resistant Staphylococcus epidermidis clinical isolate 19-5 assessed as inhibition of bacterial growth incubated for 18 to 24 hrs by broth microdilution method
# Format: functional
# MEASUREMENT_PARAMETERS: time 18-24 hrs
Bridge positions count the residues as written; N and C are the ends. Square brackets hold non-standard residues; d marks the D form. Peptide text beside a SMILES is read from it. * marks the point of attachment. X1 = CC[C@H](C)CCCCC(=O)*; Dab = NCC[C@H](N)C(=O)O
QUANTITY_KIND: log10 of MIC (log10 of the value in µg/mL)

- COMPOUND: "CCCCCCCCC(=O)N[C@H](CCN)C(=O)N[C@H]1CCNC(=O)[C@H](CC(C)C)NC(=O)[C@H](CCN)NC(=O)[C@H](CCN)NC(=O)[C@H](CC(C)C)NC(=O)[C@@H](CC(C)C)NC(=O)[C@H](CCN)NC1=O"
  log10 of MIC: 0.60
- COMPOUND: "CCCCCCCCCC(=O)N[C@H](CCN)C(=O)N[C@H]1CCNC(=O)[C@H]([C@@H](C)O)NC(=O)[C@H](CCN)NC(=O)[C@H](CCN)NC(=O)[C@H](CC(C)C)NC(=O)[C@@H](Cc2cccc(Cl)c2)NC(=O)[C@H](CCN)NC1=O"
  log10 of MIC: 0.30
- COMPOUND: "CCCCCCCCCC(=O)N[C@H](CCN)C(=O)N[C@H]1CCNC(=O)[C@H](CC(C)C)NC(=O)[C@H](CCN)NC(=O)[C@H](CCN)NC(=O)[C@H](Cc2ccccc2)NC(=O)[C@@H](Cc2ccccc2)NC(=O)[C@H](CCN)NC1=O"
  log10 of MIC: 0.00
- COMPOUND: "CC[C@H](C)CCCCC(=O)N[C@@H](CCN)C(=O)N[C@H](C(=O)N[C@@H](CCN)C(=O)N[C@H]1CCNC(=O)[C@H]([C@@H](C)O)NC(=O)[C@H](CCN)NC(=O)[C@H](CCN)NC(=O)[C@H](CC(C)C)NC(=O)[C@@H](Cc2ccccc2)NC(=O)[C@H](CCN)NC1=O)[C@@H](C)O (X1-[Dab]T[Dab][Dab][Dab][dF]L[Dab][Dab]T; lactam 4-C)"
  log10 of MIC: 0.60
- COMPOUND: "CCCCCCCCCC(=O)N[C@H](CCN)C(=O)N[C@H]1CNC(=O)[C@H]([C@@H](C)O)NC(=O)[C@H](CCN)NC(=O)[C@H](CCN)NC(=O)[C@H](CC(C)C)NC(=O)[C@@H](CC(C)C)NC(=O)[C@H](CCN)NC1=O"
  log10 of MIC: 0.00
- COMPOUND: "CCCCCCC[C@@H](O)CC(=O)N[C@H](CCN)C(=O)N[C@H]1CCNC(=O)[C@H]([C@@H](C)O)NC(=O)[C@H](CCN)NC(=O)[C@H](CCN)NC(=O)[C@H]([C@@H](C)O)NC(=O)[C@@H](Cc2ccccc2)NC(=O)[C@H](CCN)NC1=O"
  log10 of MIC: 1.81
- COMPOUND: "CCCCCCCCCC(=O)N[C@H](CCN)C(=O)N[C@H]1CCNC(=O)[C@H]([C@@H](C)O)NC(=O)[C@H](CCN)NC(=O)[C@H](CCN)NC(=O)[C@H](CC(C)C)NC(=O)[C@@H](Cc2ccc(N)cc2)NC(=O)[C@H](CCN)NC1=O"
  log10 of MIC: 1.20
- COMPOUND: "CCCCCCCCCC(=O)N[C@H](CCN)C(=O)N[C@H]1CCNC(=O)[C@H]([C@@H](C)O)NC(=O)[C@H](CCN)NC(=O)[C@H](CCN)NC(=O)[C@H](CC(C)C)NC(=O)[C@@H](Cc2ccc(Cl)c(Cl)c2)NC(=O)[C@H](CCN)NC1=O"
  log10 of MIC: 0.60
- COMPOUND: "CCCCCCCCCC(=O)N[C@H](CCN)C(=O)N[C@H]1CCNC(=O)[C@H](Cc2ccccc2)NC(=O)[C@H](CCN)NC(=O)[C@H](CCN)NC(=O)[C@H](Cc2ccccc2)NC(=O)[C@@H](CC(C)C)NC(=O)[C@H](CCN)NC1=O"
  log10 of MIC: 0.00

====

# RUN_DESCRIPTION: Cytotoxicity against human HK-2 cells assessed as inhibition of cell growth incubated for 72 hrs by CCK-8 assay
# Assay type: toxicity, cell-based
Bridge positions count the residues as written; N and C are the ends. Square brackets hold non-standard residues; d marks the D form. Peptide text beside a SMILES is read from it. * marks the point of attachment. X1 = CC[C@H](C)CCCCC(=O)*; Dab = NCC[C@H](N)C(=O)O
hey, just use y if measured IC50 at 72 h is less than 100 µg/mL, otherwise n

- COMPOUND: "CCCCCCCCCC(=O)N[C@H](CCN)C(=O)N[C@H]1CCNC(=O)[C@H]([C@@H](C)O)NC(=O)[C@H](CCN)NC(=O)[C@H](CCN)NC(=O)[C@@H](CC(C)C)NC(=O)[C@@H](CC(C)C)NC(=O)[C@H](CCN)NC1=O"
  CLASS: "y"
- COMPOUND: "CCCCCCCC(=O)N[C@H](CCN)C(=O)N[C@H]1CCNC(=O)[C@H](CC(C)C)NC(=O)[C@H](CCN)NC(=O)[C@H](CCN)NC(=O)[C@H](CC(C)C)NC(=O)[C@@H](CC(C)C)NC(=O)[C@H](CCN)NC1=O"
  CLASS: "n"
- COMPOUND: "CC[C@H](C)CCCCC(=O)N[C@@H](CCN)C(=O)N[C@H](C(=O)N[C@@H](CCN)C(=O)N[C@H]1CCNC(=O)[C@H]([C@@H](C)O)NC(=O)[C@H](CCN)NC(=O)[C@H](CCN)NC(=O)[C@H](CC(C)C)NC(=O)[C@@H](Cc2ccccc2)NC(=O)[C@H](CCN)NC1=O)[C@@H](C)O (X1-[Dab]T[Dab][Dab][Dab][dF]L[Dab][Dab]T; lactam 4-C)"
  CLASS: "y"
- COMPOUND: "CCCCCCCCCC(=O)N[C@H](CCN)C(=O)N[C@H]1CNC(=O)[C@H]([C@@H](C)O)NC(=O)[C@H](CCN)NC(=O)[C@H](CCN)NC(=O)[C@H](CC(C)C)NC(=O)[C@@H](CC(C)C)NC(=O)[C@H](CCN)NC1=O"
  CLASS: "y"
- COMPOUND: "CCCCCCCCC(=O)N[C@H](CCN)C(=O)N[C@H]1CCNC(=O)[C@H](CC(C)C)NC(=O)[C@H](CCN)NC(=O)[C@H](CCN)NC(=O)[C@H](CC(C)C)NC(=O)[C@@H](CC(C)C)NC(=O)[C@H](CCN)NC1=O"
  CLASS: "y"
- COMPOUND: "CCCCCCC[C@@H](O)CC(=O)N[C@H](CCN)C(=O)N[C@H]1CCNC(=O)[C@H]([C@@H](C)O)NC(=O)[C@H](CCN)NC(=O)[C@H](CCN)NC(=O)[C@H]([C@@H](C)O)NC(=O)[C@@H](Cc2ccccc2)NC(=O)[C@H](CCN)NC1=O"
  CLASS: "n"
- COMPOUND: "CCCCCCCCCC(=O)N[C@H](CCN)C(=O)N[C@H]1CCNC(=O)[C@H](CO)NC(=O)[C@H](CCN)NC(=O)[C@H](CCN)NC(=O)[C@H](Cc2ccccc2)NC(=O)[C@@H](CC(C)C)NC(=O)[C@H](CCN)NC1=O"
  CLASS: "n"
- COMPOUND: "CCCCCCC[C@H](O)CC(=O)N[C@H](CCN)C(=O)N[C@H]1CCNC(=O)[C@H](CC(C)C)NC(=O)[C@H](CCN)NC(=O)[C@H](CCN)NC(=O)[C@H](CC(C)C)NC(=O)[C@@H](CC(C)C)NC(=O)[C@H](CCN)NC1=O"
  CLASS: "y"
- COMPOUND: "CCCCCCCCCC(=O)N[C@H](CCN)C(=O)N[C@H]1CCNC(=O)[C@H](CC(=O)O)NC(=O)[C@H](CCN)NC(=O)[C@H](CCN)NC(=O)[C@H](CC(C)C)NC(=O)[C@@H](CC(C)C)NC(=O)[C@H](CCN)NC1=O"
  CLASS: "n"

====

Listing of recorded MIC by entry.
# Tested on: Staphylococcus epidermidis
# RUN_DESCRIPTION: Antibacterial activity against methicillin resistant Staphylococcus epidermidis clinical isolate 19-5 assessed as inhibition of bacterial growth incubated for 18 to 24 hrs by broth microdilution method
# Assay type: functional
# MEASUREMENT_PARAMETERS: time 18-24 hrs

- SMILES_REPR: "CCCCCCC[C@@H](O)CC(=O)N[C@H](CCN)C(=O)N[C@H]1CCNC(=O)[C@H](CC(C)C)NC(=O)[C@H](CCN)NC(=O)[C@H](CCN)NC(=O)[C@H](Cc2ccccc2)NC(=O)[C@@H](CC(C)C)NC(=O)[C@H](CCN)NC1=O"
  BOUND_OPERATOR: "="
  MIC, µg/mL: 2
- SMILES_REPR: "CCCCCCCC(=O)N[C@H](CCN)C(=O)N[C@H]1CCNC(=O)[C@H](CC(C)C)NC(=O)[C@H](CCN)NC(=O)[C@H](CCN)NC(=O)[C@H](CC(C)C)NC(=O)[C@@H](CC(C)C)NC(=O)[C@H](CCN)NC1=O"
  BOUND_OPERATOR: "="
  MIC, µg/mL: 8
- SMILES_REPR: "CCCCCCC[C@@H](O)CC(=O)N[C@H](CCN)C(=O)N[C@H]1CCNC(=O)[C@H]([C@@H](C)O)NC(=O)[C@H](CCN)NC(=O)[C@H](CCN)NC(=O)[C@H]([C@@H](C)O)NC(=O)[C@@H](CC(C)C)NC(=O)[C@H](CCN)NC1=O"
  BOUND_OPERATOR: ">"
  MIC, µg/mL: 64
- SMILES_REPR: "CCCCCCCCCC(=O)N[C@H](CCN)C(=O)N[C@H]1CCNC(=O)[C@H](CC(C)C)NC(=O)[C@H](CCN)NC(=O)[C@H](CCN)NC(=O)[C@H](CC(C)C)NC(=O)[C@@H](CC(C)C)NC(=O)[C@H](CCN)NC1=O"
  BOUND_OPERATOR: "="
  MIC, µg/mL: 2
